Ok so here's the combined literature set: IC50 for Cyclin-dependent kinase 2 (Homo sapiens, UniProt P24941).
Test Readout: IC50 (nM)

* Cc1ccc(-n2c(SCc3ccc(Cl)cc3)nc3ccc(F)cc3c2=O)cc1 | 2100
* CN(C)CCCCNC(=O)Cc1cccc(Nc2nc(OCC3CCCCC3)c3nc[nH]c3n2)c1 | 860
* O=C(O)c1cccc(Nc2nc(OCC3CCCCC3)c3nc[nH]c3n2)c1 | 990
* O=C(NCCN1CCOCC1)Nc1ccc(Nc2nc(OCC3CCCCC3)c3nc[nH]c3n2)cc1 | 1100
* Nc1cccc(Nc2nc(OCC3CCCCC3)c3[nH]cnc3n2)c1 | 700

[a] CC(C)CNC(=O)Cc1cccc(Nc2nc(OCC3CCCCC3)c3nc[nH]c3n2)c1
[b] CN1CCCN(c2cccc(NC(=O)c3n[nH]cc3Nc3ncnc4[nH]ccc34)c2)CC1
[c] CN1CCCN(c2ccc(NC(=O)c3n[nH]cc3Nc3ncnc4[nH]ccc34)cc2)CC1
# input Ascending by IC50, please. Answer format: the labels, ordered as requested.
# output c, b, a
(c: 2.32 nM, b: 5.49 nM, a: 940 nM)

----------
pIC50: −log10 of the molar value.
Ok so here's the combined literature set: pIC50 for UniProtKB P24941.
Test Readout: pIC50

* CC(=O)Nc1cccc(Nc2nc(OCC3CCCCC3)c3nc[nH]c3n2)c1 | 6.06
* O=C(Nc1ccc(N2CCNCC2)cn1)c1n[nH]cc1Nc1ncnc2[nH]ccc12 | 6.81
* O=C(Nc1ccc(N2CCNCC2)cn1)c1n[nH]cc1Nc1ncnc2sc3c(c12)CCC3 | 7.01

[P] O=C(Nc1ccc(N2CCOCC2)cc1)c1n[nH]cc1Nc1ncnc2sc3c(c12)CCCC3
[Q] O=C(Cc1cccc(Nc2nc(OCC3CCCCC3)c3nc[nH]c3n2)c1)NC1CCCC1
[R] O=C1Nc2ccc(F)cc2C1=NNC(=O)c1cc2cc(Br)ccc2o1
[S] O=[N+]([O-])c1ccc(Nc2nc(OCC3CCCCC3)c3nc[nH]c3n2)cc1
[T] O=C(Nc1ccc(N2CCOCC2)cc1)c1n[nH]cc1Nc1ncnc2[nH]ccc12
# input Ascending by pIC50, please. Answer format: the labels, ordered as requested.
# output S, Q, R, P, T
(S: 5.72, Q: 5.96, R: 7.28, P: 8.03, T: 8.43)

[1] O=C(Nc1ccc(C(=O)N2CCOCC2)cc1)c1n[nH]cc1Nc1ncnc2sccc12
[2] O=C(NNC(=S)Nc1ccc(F)cc1)c1oc2ccccc2c1CN1CCN(c2ccccc2)CC1
# input # query: argmin of pIC50 over 1 and 2 State your choice using its label.
# output 2
(2: 7.19, 1: 7.98)

[I] O=C(Nc1ccc(N2CC3CC2CN3)cc1)c1n[nH]cc1Nc1ncnc2sc3c(c12)CCC3 (centres unmarked)
[II] O=[N+]([O-])c1cccc(Nc2nc(OCC3CCCCC3)c3nc[nH]c3n2)c1
[III] COc1ccc(CNS(=O)(=O)Cc2cccc(Nc3nc(OCC4CCCCC4)c4nc[nH]c4n3)c2)cc1
[IV] CC(=O)c1ccc(NC(=S)NNC(=O)c2oc3ccccc3c2CN2CCN(c3ccccc3)CC2)cc1
# input Ascending by pIC50, please. Answer format: the labels, ordered as requested.
# output III, II, IV, I
